Source listed as the supplement of paper PMC13380429.

Reported cell viability values for a set of compounds
# Test system: Caco-2
# assay_protocol: cell viability relative to DMSO; higher = less toxic
# particulars: 72 h; 10 nM
Please reply with the bare figure in % and do not write the unit itself.

CCC(=O)NC1CCc2cccc(OC)c2C1 (stereo not given) :: 99.5
C#C[C@]1(O)CC[C@H]2[C@@H]3CCC4=CC(=O)CC[C@@H]4[C@H]3CC[C@@]21C :: 103
Cc1ccc(-n2nc(C(C)(C)C)cc2NC(=O)NCc2cc(F)ccc2Oc2ccc3c(cnn3CCO)c2)cc1 :: 93.2
Cc1ccc(S(=O)(=O)NCl)cc1 :: 104

For reference, reported cell viability for "COc1ccc(C(Cl)=C(c2ccc(OC)cc2)c2ccc(OC)cc2)cc1" stands at 97.5

====

# Test system: U2OS
# assay_protocol: cell viability relative to DMSO; higher = less toxic
# particulars: 72 h; 1000 nM
Measured cell viability of individual entries
The response must be a number in % with no trailing unit.

COc1cc(OCc2cccc(-c3ccccc3)c2C)cc(OC)c1CN1CCCC[C@H]1C(=O)O :: 99

# "CCCCCCCCCCCCCCCCOP(=O)([O-])OCC[N+](C)(C)C" with U2OS: cell viability is 99.9

U2OS assay, compound "O=C(O)COc1ccc(/C=C2\SC(=O)NC2=O)cc1" , recorded cell viability = 99.8

====

drug sensitivity score overview
# System: HepG2
# assay_protocol: drug sensitivity score (DSS) for viability; higher = more toxic; extreme values may be limits of the assay
# particulars: 72 h

So for "CN1[C@@H]2CC[C@H]1C[C@@H](OC(=O)c1c[nH]c3ccccc13)C2" , the logged drug sensitivity score turned out to be 0

Item: "Cc1c(N)nc([C@H](CC(N)=O)NC[C@H](N)C(N)=O)nc1C(=O)N[C@H](C(=O)N[C@H](C)[C@@H](O)[C@H](C)C(=O)N[C@H](C(=O)NCCc1nc(-c2nc(C(=O)NCCCNCCCCN)cs2)cs1)[C@@H](C)O)[C@@H](O[C@@H]1O[C@@H](CO)[C@@H](O)[C@H](O)[C@@H]1O[C@@H]1O[C@H](CO)[C@@H](O)[C@H](OC(N)=O)[C@@H]1O)c1cnc[nH]1" | drug sensitivity score: 4

Lab note: "O=NN(CCCl)C(=O)NC1CCCCC1" gave drug sensitivity score of 0

Form field drug sensitivity score, entry "O=C(Nc1ccccc1)N[C@H]1C[C@H](C(=O)O)Nc2cc(Cl)cc(Cl)c21" : 0

Reported drug sensitivity score ( "Cc1c(C(=O)NN2CCCCC2)nn(-c2ccc(Cl)cc2Cl)c1-c1ccc(Cl)cc1" ) = 0

Lab book: drug sensitivity score of O=C(Oc1ccccc1)c1ccccc1O [phenyl-salicylate] noted as 0

For "NC1(C(=O)N[C@@H](CCO)c2ccc(Cl)cc2)CCN(c2ncnc3[nH]ccc23)CC1" the compound record lists drug sensitivity score as 3

====

# Test system: Vero E6
# assay_protocol: cell viability relative to DMSO; higher = less toxic
# particulars: 72 h; 10 nM
Below, each entry is listed alongside its reported cell viability.
Answer format: numeric, % implied, no suffix.

Guide cases for cell viability, answers given:
Cc1noc(C)c1-c1cc(O)cc([C@@H](O)c2ccccc2)c1 [OXF-BD-02] :: 103
CCOC(=O)C1=C[C@@H](OC(CC)CC)[C@H](NC(C)=O)[C@@H](N)C1 [oseltamivir-phosphate] :: 93.2
CC(=O)NC[C@H]1CN(c2ccc(N3CCN(C(=O)CO)CC3)c(F)c2)C(=O)O1 [eperezolid] :: 99.3
Cc1nc(NC(=O)N2CCC[C@H]2C(N)=O)sc1-c1ccnc(C(C)(C)C(F)(F)F)c1 [alpelisib] :: 104
CCc1cccc(CC)c1NC(=O)N1Cc2[nH]nc(NC(=O)c3ccc(N4CCN(C)CC4)cc3)c2C1 :: 97.5

Let us examine a further case.
NC1(C(=O)N[C@@H](CCO)c2ccc(Cl)cc2)CCN(c2ncnc3[nH]ccc23)CC1 [AZD5363] has a reported cell viability of 99.9

====

# System: U2OS
# assay_protocol: cell viability relative to DMSO; higher = less toxic
# particulars: 72 h; 10 nM
parameter: cell viability (%)
// units = %; emit number, no label

cell viability value, target or system U2OS, for "CC[C@@H](Nc1c(Nc2cccc(C(=O)N(C)C)c2O)c(=O)c1=O)c1ccc(C)o1" : 102

Response field cell viability (U2OS) for item "N#C/C(=C\c1ccc(O)c(O)c1)C(=O)NCCCCc1ccccc1" : 99

Bench note, U2OS: "NC(=O)CC[C@H](N)C(=O)O" , cell viability reads 102

U2OS cell viability of C[N+]12CCCCC1CCC(=C(c1cccs1)c1cccs1)C2 (stereo not drawn) is 99.2

Tested system U2OS; cell viability recorded for "Cc1ccnc2c1NC(=O)c1cccnc1N2C1CC1" was 101

====

# System: U2OS
# assay_protocol: cell viability relative to DMSO; higher = less toxic
# particulars: 72 h; 10 nM
parameter: cell viability (%)
Your answer should be a plain number; it is taken to be in %.

Query O=C(Nc1ccc(-c2ccnc(Nc3ccc(N4CCOCC4)cc3)n2)cc1)C1CCCN1 (configuration not stated) yields cell viability of 97.5

According to the records, this compound "CN[C@@H](C)[C@H]1[C@H](O)C[C@@]2(C)[C@@H]3CC[C@H]4C(C)(C)[C@@H](NC)CC[C@@]45C[C@@]35CC[C@]12C" displays cell viability of 96.3

====

# Tested on: U2OS
# assay_protocol: cell viability relative to DMSO; higher = less toxic
# particulars: 72 h; 100 nM
parameter: cell viability (%)
Output spec: scalar in %, unitless text.

These solved cases illustrate the format of a correct answer.
CC(C)(C)n1nc(-c2cccc3ccccc23)c2c(N)ncnc21 [1-naphthyl-PP1] :: 109
COc1ccncc1C(=O)NC(=O)Nc1ccc(-c2ccccc2)c(C(F)(F)F)c1 [S1P1-agonist-III] :: 101
C#CCOC(=O)C1=CCCN(C)C1 [arecaidine-propargyl-ester] :: 99.3

Summary line: O=C(O)Cc1sc(-c2ccccc2)nc1-c1ccc(Cl)cc1 [fentiazac] , U2OS, reported cell viability = 95.2

Record O=C(c1cc2ccccc2o1)N1CCN(Cc2ccccc2)CC1 [befuraline] / U2OS, cell viability recorded as 95.1

Lab entry: U2OS assay, compound C[C@]12CC[C@H]3[C@@H](CCC4=CC(=O)CC[C@@]43C)[C@@H]1CC[C@@H]2O [TESTOSTERONE] , cell viability = 98.7

For CN[C@@H](C)[C@H]1[C@H](O)C[C@@]2(C)[C@@H]3CC[C@H]4C(C)(C)[C@@H](NC)CC[C@@]45C[C@@]35CC[C@]12C [cyclovirobuxin-D] on U2OS, measured cell viability was 99.4

Measured on U2OS, CCC1(C2=NCCN2)Cc2ccccc2O1 (stereo not given) [efaroxan] has a documented cell viability of 101

cell viability for U2OS with input CN(C)CCN1C(=O)c2cccc3cc(N)cc(c23)C1=O [amonafide] equals 95

Param item: C=CC(=O)Nc1ccc2ncnc(Nc3ccc(OCc4cccc(F)c4)c(Cl)c3)c2c1 [AST-1306] ; param system: U2OS; output cell viability: 91.5

====

# Tested on: Caco-2
# assay_protocol: cell viability relative to DMSO; higher = less toxic
# particulars: 72 h; 100 nM
Reported cell viability values are given for each entry in this list.
Provide the reading as a plain figure in %.

Check out these entries, answers already filled in.
Cc1ccccc1/N=N/c1ccc(/N=N/c2c(O)ccc3ccccc23)c(C)c1 :: 113
CC(C)(O)c1coc(S(=O)(=O)NC(=O)Nc2c3c(cc4c2CCC4)CCC3)c1 :: 102
CCOc1cc(C(=O)Nc2ccc(Cl)c(-c3nc4ccccc4[nH]3)c2)cc(OCC)c1OCC :: 89.4
Cc1c2oc3c(C)ccc(C(=O)N[C@@H]4C(=O)N[C@H](C(C)C)C(=O)N5CCC[C@H]5C(=O)N(C)CC(=O)N(C)[C@@H](C(C)C)C(=O)O[C@@H]4C)c3nc-2c(C(=O)N[C@@H]2C(=O)N[C@H](C(C)C)C(=O)N3CCC[C@H]3C(=O)N(C)CC(=O)N(C)[C@@H](C(C)C)C(=O)O[C@@H]2C)c(N)c1=O :: 54.8

Briefly, cell viability measured for "O=c1cc[nH]c(=S)[nH]1" : 97.1

// field: cell viability; key: "COc1cc2c(cc1OC)CN(C(=O)/C=C/c1c(-c3ccccc3)n(C)c3ncccc13)CC2" ; value = 88.8

// sample "C[C@H](N[C@@H](CCc1ccccc1)C(=O)O)C(=O)N1CCC[C@H]1C(=O)O" , its cell viability was 90.1

====

# Test system: Vero E6
# assay_protocol: cell viability relative to DMSO; higher = less toxic
# particulars: 72 h; 1 nM
parameter: cell viability

Consider the reported cell viability for these molecules:
Cc1cc(NC(=O)NCCN2CCC(O)(Cc3ccccc3)CC2)c2ccccc2n1 :: 104%
OC(CCCN1CCN(c2ncc(F)cn2)CC1)c1ccc(F)cc1 (stereo unspecified) :: 101%
Cc1ccccc1OCC(O)CO (stereo unspecified) :: 110%

Measured cell viability, "CCN(CC)CCOCCOC(=O)C1(c2ccccc2)CCCC1" : 103%

Memo: "CO[C@H]1CC[C@H](N(c2cc(C3=CCCCC3)sc2C(=O)O)C(=O)[C@H]2CC[C@H](C)CC2)CC1" , reported cell viability: 96.9%

molecule CCC(=O)O[C@H]1[C@H](O[C@@H]2[C@@H](C)[C@H](O[C@H]3C[C@@](C)(OC)[C@@H](O)[C@H](C)O3)[C@@H](C)C(=O)O[C@H](CC)[C@@](C)(O)[C@H](O)[C@@H](C)C(=O)[C@H](C)C[C@@]2(C)O)O[C@H](C)C[C@@H]1N(C)C [erythromycin-estolate] , cell viability observed: 96.9%
